target_entity: T1, human PAD4 (Peptidylarginine deiminase 4) (human, UniProt Q9UM07 1-663)
T1 construct: also called full-length recombinant human PAD4 protein; active PAD4
protocol_summary: SPR (Biacore T200), antibody captured on rabbit anti-mouse polyclonal antibody on CM5 chip, human PAD4 as analyte
The binders listed here are annotated with their Kd.
# value in nM; strip the unit string

Here is how some binders turned out for Kd.
- binder: "P2 (antibody, V domains shown, Chicken variable regions recombined into mouse chimeric antibody (IgG1) expression vectors; also called anti-PAD4 antibody P2; P1 etc) VH: AVTLDESGGGLQTPGGALSLVCKASGFHMRSYAMNWVRQAPGKGLEFVAGIDNSGRYRNYGAAVKGRATISRDNGQSTVRLQLNNLRAEDTGIYYCAKNFDVGGDGCDWSSGCIDAWGHGTEVIVS VL: ASTQPASVSANPGETVKITCSGGSSTYYGWYQQKSPGSAPVTVIYQNTNRPSDIPSRFSGSKSGSTATLTITGVQAEDEAVYFCGGYDRSNYAGIFGAGTTLTVL"
  Kd (nM): 31
- binder: "P3 (antibody, V domains shown, Chicken variable regions recombined into mouse chimeric antibody (IgG1) expression vectors; also called anti-PAD4 antibody P3; P1 etc) VH: AVTLDESGGGLQTPGGGLSLICKASGSTIRSYAMNWVRQAPGKGLEFVAGIDNSGRYTNYGAAVKGRATISRDNGQSTVRLQLNNLRAEDTGIYYCAKNVDVAGYGCDWSSGCIDTWGHGTEVIVS VL: ASTQPASVSANPGETVKITCSGGSSTYYGWYQQKSPGSAPVTVIYENTNRPSDIPSRFSGSKSGSTATLTITGVQADDEAVYFCGGYDRTNYAGIFGAGTTLTVL"
  Kd (nM): 24
- binder: "P4 (antibody, V domains shown, Chicken variable regions recombined into mouse chimeric antibody (IgG1) expression vectors; also called anti-PAD4 antibody P4; P1 etc) VH: AVTLDESGGGLQTPGGGLSLICKASGFSMRSYAMNWVRQAPGKGLEFVAGIDNTGRYTGYGSAVKGRATISRDNGQSTVRLQLNNLRAEDTGTYYCAKNVDVAGSGCDWSSGCIDAWGHGTEVTVS VL: ASTQPSSVSANPGETVKITCSGGSSTYYGWYQQKSPGSAPVTVIYQNTKRPSGLSSRFSGSKSGSTATLTITGVQAEDEAVYFCGGYDTRTYAGIFGAGTTLTVL"
  Kd (nM): 15

Next, consider the following binder.
Ask: # query: Kd of entry P1 (antibody, V domains shown, Chicken variable regions recombined into mouse chimeric antibody (IgG1) expression vectors; also called anti-PAD4 antibody P1; P1 etc) VH: AVTLDESGGGLQTPGGGLSLICKASGFHMRSYAMNWVRQAPGKGLEFVAGIDNSGRYRNYGAAVKGRATISRDNGQSTVRLQLNNLRAEDTGIYYCAKNFDVGGDGCDWSSGCIDAWGHGTEVIVS VL: ASTQPSSVSANPGETVKITCSGGSSTYYGWYQQKSPGSAPVTVIYQNTKRPSGLSSRFSGSKSGSTATLTITGVQAEDEAVYFCGGYDTRTYAGIFGAGTTLTVL
Result: 73
